Biological target: MAO-A (Rattus norvegicus, UniProt P21396)
Construct: The MAO enzyme source was a homogenate of rat brain in 0.3 M sucrose 1:20 w/v; from tissue; host or cells: rat brain homogenate
Sequence (P21396 whole entry): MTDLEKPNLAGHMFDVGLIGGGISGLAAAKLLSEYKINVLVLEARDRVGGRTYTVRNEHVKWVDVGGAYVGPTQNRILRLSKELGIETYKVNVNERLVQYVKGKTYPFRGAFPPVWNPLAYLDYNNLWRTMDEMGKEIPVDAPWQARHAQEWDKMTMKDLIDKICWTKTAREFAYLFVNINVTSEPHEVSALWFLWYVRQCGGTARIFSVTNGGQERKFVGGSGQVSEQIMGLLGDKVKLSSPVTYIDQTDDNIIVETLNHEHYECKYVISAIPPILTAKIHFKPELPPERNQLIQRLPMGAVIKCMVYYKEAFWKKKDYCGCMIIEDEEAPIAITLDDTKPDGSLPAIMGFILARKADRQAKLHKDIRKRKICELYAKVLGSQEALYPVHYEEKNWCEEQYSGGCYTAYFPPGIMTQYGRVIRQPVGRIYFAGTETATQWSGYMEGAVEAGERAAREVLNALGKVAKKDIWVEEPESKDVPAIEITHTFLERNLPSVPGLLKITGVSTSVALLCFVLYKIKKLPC
Experiment: Inhibition of MAO activity in vitro (5-HT as substrate)
Format: biochemical
parameter: pIC50
Please note pIC50 is a logarithmic value: minus log10 of concentration in mol/L. Answer with that number alone.

Task: Item C#CCN(C)[C@@H]1CCc2ccc(OC(=O)N(C)CC)cc21 has what recorded pIC50?
Output: 5.37

---

Target: MAO-B (Rattus norvegicus, UniProt P19643)
Construct: The MAO enzyme source was a homogenate of rat brain in 0.3 M sucrose 1:20 w/v; from tissue; host or cells: rat brain homogenate
Sequence (P19643 1-520): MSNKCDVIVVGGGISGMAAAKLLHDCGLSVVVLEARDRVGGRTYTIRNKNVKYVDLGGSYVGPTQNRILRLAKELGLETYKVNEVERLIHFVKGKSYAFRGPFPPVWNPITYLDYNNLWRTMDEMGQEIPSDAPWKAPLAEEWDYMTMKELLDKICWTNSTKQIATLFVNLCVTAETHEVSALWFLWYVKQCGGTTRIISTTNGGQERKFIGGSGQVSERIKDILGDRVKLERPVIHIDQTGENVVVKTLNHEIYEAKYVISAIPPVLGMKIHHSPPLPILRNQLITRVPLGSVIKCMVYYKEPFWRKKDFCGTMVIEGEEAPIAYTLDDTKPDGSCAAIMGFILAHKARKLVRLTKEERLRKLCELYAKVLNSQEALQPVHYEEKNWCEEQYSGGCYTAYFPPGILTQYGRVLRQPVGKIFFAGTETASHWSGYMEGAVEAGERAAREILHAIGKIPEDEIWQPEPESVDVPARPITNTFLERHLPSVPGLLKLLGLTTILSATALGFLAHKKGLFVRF
Assay: Inhibition of MAO activity in vitro (PEA as substrate)
Format: biochemical
parameter: IC50 (nM)
# value in nM; strip the unit string

Task: Request body: readout IC50, system MAO-B (Rattus norvegicus, UniProt P19643), query C#CCN(C)C1CCc2cccc(O)c21 (racemic) [Cmpd 118, 3-(methyl-prop-2-ynylamino)-4-indanol] . Return the value.
Output: 50

---

Biological target: MAO-A (Rattus norvegicus)
Construct: The MAO enzyme source was a homogenate of rat brain in 0.3 M sucrose 1:20 w/v; from tissue; host or cells: rat brain homogenate
Experiment: Inhibition of MAO activity in vitro (5-HT as substrate)
Format: biochemical
Conditions: rat brain homogenate, 60 min pre-incubation at 37° C., 14C 5-HT substrate; read-out: In vitro IC50 A
Counter-ions that a name gives are not always drawn.
Property: pIC50; scope: individual compounds
Expect pIC50 as a plain number equal to -log10 of the molar concentration.

Use the examples below as a reference point.
- C#CCN(C)C1CCc2c(OC(=O)N(C)CC)cccc21 (centres unmarked) [Cmpd 142]: 7.57
- C#CCNC1CCc2ccc(OC(=O)N(C)CC)cc2C1 (centres unmarked) [Cmpd 149]: 5.70
- C#CCN(C)C1CCc2c(OC(=O)c3c(OC)cccc3OC)cccc21 (racemic) [Cmpd 121]: 6.47
- C#CCN(C)C1CCc2ccc(O)cc2C1 (racemic) [Cmpd 123, 7-(methyl-prop-2-ynylamino)-2-tetralinol]: 6.39

Task: What does the data say about its pIC50? Entry: C#CCN(C)C1CCc2cc(OC(=O)c3ccccc3)c(OC(=O)c3ccccc3)cc21 (racemic) [Cmpd 137, HCl]
Output: 5.85

---

# reported pIC50; entries follow
Biological target: MAO-A (Rattus norvegicus)
Construct: The MAO enzyme source was a homogenate of rat brain in 0.3 M sucrose 1:20 w/v; from tissue; host or cells: rat brain homogenate
Assay: Inhibition of MAO activity in vitro (5-HT as substrate)
Format: biochemical
Conditions: rat brain homogenate, 60 min pre-incubation at 37° C., 14C 5-HT substrate; read-out: In vitro IC50 A
Counter-ions that a name gives are not always drawn.
Please note pIC50 is a logarithmic value: minus log10 of concentration in mol/L. Answer with that number alone.

Worked set:
- C#CCN(C)C1CCc2c(OC(=O)c3ccccc3)cccc21 (racemic): 6.89
- C#CCN(C)C1CCc2cc(OC(=O)c3ccccc3)c(OC(=O)c3ccccc3)cc2C1 (racemic) [Cmpd 138, HCl]: 5.92
- C#CCN(C)C1CCc2c(OC(C)=O)cccc21 (racemic): 7.74
- C#CCNC1CCCc2ccc(OC(=O)N(C)CC)cc21 (stereo not drawn): 3.30

Task: Given the compound C#CCN(C)C1CCc2cccc(OC(=O)N(C)CC)c21 (stereo not drawn) , what is its reported pIC50?
Output: 4.19

Task: Another compound: C#CCN(C)[C@H]1CCc2ccc(O)cc21 [Cmpd 113, (S)3-(methyl-prop-2-ynylamino)-5-indanol]
Output: 4.92

Task: Try this compound next: C#CCN(C)[C@@H]1CCc2ccc(OC(=O)c3c(OC)cccc3OC)cc21
Output: 5.92

Task: Here is the next compound: C#CCN(C)[C@@H]1CCc2ccc(O)cc21 [Cmpd 114, (R)3-(methyl-prop-2-ynylamino)-5-indanol]
Output: 8.00

Task: Also need C#CCN(C)C1CCc2cccc(OC(=O)N(C)CCC)c21 (stereo not drawn) , thanks.
Output: 4.15

Task: One more compound: C#CCN(C)[C@@H]1CCc2ccc(OC(=O)CCCC)cc21
Output: 7.24

Task: Check C#CCN(C)[C@@H]1CCc2ccc(OC(C)=O)cc21 too.
Output: 7.46

Task: Same question for C#CCN(C)C1CCc2ccc(O)cc21 (racemic) please.
Output: 7.52

Task: Cool, now C#CCN(C)C1CCc2cc(O)c(O)cc2C1 (stereo not drawn)
Output: 5.35

Task: Another: C#CCN(C)C1CCc2c(O)cccc21 (racemic)
Output: 8.08

---

Target: MAO-A (Rattus norvegicus)
Construct: The MAO enzyme source was a homogenate of rat brain in 0.3 M sucrose 1:20 w/v; from tissue; host or cells: rat brain homogenate
Assay: Inhibition of MAO activity in vitro (5-HT as substrate)
Assay type: biochemical
Conditions: rat brain homogenate, 60 min pre-incubation at 37° C., 14C 5-HT substrate; read-out: In vitro IC50 A
Where a name gives a salt, the structure may show the parent alone.
# maps each entry to its IC50
Give the number; nM is assumed, so skip it.

Check out these entries, answers already filled in.
• C#CCN(C)[C@@H]1CCc2ccc(OC(=O)c3ccccc3C)cc21 [Cmpd 132] = 1100
• C#CCN(C)[C@@H]1CCc2ccc(OC(=O)C(C)(C)C)cc21 [Cmpd 130] = 560
• C#CCN(C)[C@H]1CCc2ccc(OC(=O)c3ccccc3)cc21 [Cmpd 127, HCl] = 3800
• C#CCN(C)C1CCc2cccc(O)c21 (racemic) [Cmpd 118, 3-(methyl-prop-2-ynylamino)-4-indanol] = 70

Now turn to the next compound.
Task: May I ask what IC50 has been recorded for C#CCN(C)[C@@H]1CCc2ccc(OC(=O)c3ccccc3)cc21 [Cmpd 128] ?
Output: 200

---

Biological target: MAO-B (Rattus norvegicus)
Construct: The MAO enzyme source was a homogenate of rat brain in 0.3 M sucrose 1:20 w/v; from tissue; host or cells: rat brain homogenate
Test: Inhibition of MAO activity in vitro (PEA as substrate)
Format: biochemical
Conditions: rat brain homogenate, 60 min pre-incubation at 37° C., 14C PEA substrate; read-out: In vitro IC50 B
Structures can show the parent of a compound that is named as a salt.
parameter: IC50 (µM)
API: value field is a number in µM; no unit string.

- C#CCN(C)C1CCc2cc(O)c(O)cc2C1 (centres unmarked) [Cmpd 139]: 41

Task: Report IC50 for C#CCN(C)[C@@H]1CCc2ccc(OC(=O)c3ccccc3C)cc21 [Cmpd 132] tested on MAO-B (Rattus norvegicus).
Output: 9.9

Task: Same thing, different molecule: C#CCN(C)[C@H]1CCc2ccc(OC(=O)c3ccccc3)cc21 [Cmpd 127, HCl]
Output: 5.6

Task: Subsequent entry: C#CCNC1CCCc2ccc(OC(=O)N(C)CC)cc21 (centres unmarked) [Cmpd 148]
Output: 100

Task: Next up: C#CCN(C)C1CCc2c(OC(=O)c3ccccc3)cccc21 (racemic) [Cmpd 120]
Output: 0.91

---

Form field: IC50 (one value per entry).
Molecular target: MAO-B (Rattus norvegicus)
Construct: The MAO enzyme source was a homogenate of rat brain in 0.3 M sucrose 1:20 w/v; from tissue; host or cells: rat brain homogenate
Sequence (P19643 1-520): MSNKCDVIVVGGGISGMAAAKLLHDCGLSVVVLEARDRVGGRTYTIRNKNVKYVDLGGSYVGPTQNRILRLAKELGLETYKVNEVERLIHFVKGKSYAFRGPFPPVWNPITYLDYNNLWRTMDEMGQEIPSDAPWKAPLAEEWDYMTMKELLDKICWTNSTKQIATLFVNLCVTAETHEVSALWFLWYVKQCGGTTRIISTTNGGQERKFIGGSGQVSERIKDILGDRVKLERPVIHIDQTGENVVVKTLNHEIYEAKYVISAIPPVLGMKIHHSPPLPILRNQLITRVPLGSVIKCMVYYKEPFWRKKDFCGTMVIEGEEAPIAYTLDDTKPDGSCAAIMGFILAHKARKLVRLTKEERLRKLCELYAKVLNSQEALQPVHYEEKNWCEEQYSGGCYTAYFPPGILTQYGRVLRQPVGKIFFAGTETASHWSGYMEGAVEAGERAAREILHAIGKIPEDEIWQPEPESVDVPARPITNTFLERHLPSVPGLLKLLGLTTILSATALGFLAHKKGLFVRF
Test: Inhibition of MAO activity in vitro (PEA as substrate)
Assay type: biochemical
Conditions: rat brain homogenate, 60 min pre-incubation at 37° C., 14C PEA substrate; read-out: In vitro IC50 B
Where a name gives a salt, the structure may show the parent alone.
Only the number, expressed in µM, is required.

- C#CCN(C)C1CCc2ccc(OC(=O)c3ccccc3)cc2C1 (racemic) [Cmpd 124, Hcl]: 1.2
- C#CCN(C)[C@@H]1CCc2ccc(OC(=O)c3ccccc3)cc21 [Cmpd 128]: 1

Task: # returns recorded IC50 (system: MAO-B (Rattus norvegicus)) for C#CCN(C)C1CCc2cccc(OC(=O)N(C)CCC)c21 (stereo not drawn) [Cmpd 144]
Output: 63

Task: Thanks! And C#CCN(C)C1CCc2cc(OC(=O)c3ccccc3)c(OC(=O)c3ccccc3)cc21 (racemic) [Cmpd 137, HCl] ?
Output: 21

Task: C#CCN(C)C1CCc2c(OC(=O)c3c(OC)cccc3OC)cccc21 (racemic) [Cmpd 121] , same question.
Output: 3
